Test: Mean residence time in healthy human at 4 mg/kg, iv administered as single dose 30 mins infusion
Assay type: ADME, organism-based
Set-up: dose 4 mg/kg, route intravenous
Details: in vivo
Experimental Endpoint: MRT (h)
The response must be a number in h with no trailing unit.

// CCCCCCCCCC(=O)N[C@@H](Cc1c[nH]c2ccccc12)C(=O)N[C@H](CC(N)=O)C(=O)N[C@@H](CC(=O)O)C(=O)N[C@@H]1C(=O)NCC(=O)N[C@@H](CCCN)C(=O)N[C@@H](CC(=O)O)C(=O)N[C@H](C)C(=O)N[C@@H](CC(=O)O)C(=O)NCC(=O)N[C@H](CO)C(=O)N[C@@H]([C@H](C)CC(=O)O)C(=O)N[C@@H](CC(=O)c2ccccc2N)C(=O)O[C@@H]1C : MRT value = 10.9
